Test system: primary human fibroblasts derived from IPF patients (LL29 cells) treated with TGF-β1
method.description: Inhibition of the fibrotic process (αSMA staining) in TGF-β1-treated fibroblasts
Format: cell-based
study.conditions: Fibroblast, 96 h, % αSMA-positive LL29 cells, TGF-β1 20 ng/mL, 4 days
quantity: EC50 (nM)
Dear colleague, please return just the value in nM, with no unit written.

{"columns": ["cpd.smiles", "result.number"],
 "data": [
  ["Fc1cccc(-c2nccc3[nH]c(-c4n[nH]c5ccc(-c6cncc(CN7CCC(F)(F)C7)c6)cc45)cc23)c1", 169],
  ["c1cc2[nH]c(-c3n[nH]c4ccc(-c5cncnc5)cc34)cc2cn1", 686],
  ["c1ncc(-c2ccc3[nH]nc(-c4cc5c(-c6ccoc6)nccc5[nH]4)c3c2)cn1", 349]
]}

Now look at this one.
# input Consider the compound shown here: "CS(=O)(=O)NCc1cc(F)cc(-c2nccc3[nH]c(-c4n[nH]c5ccc(-c6cncc(CN7CCC(F)(F)C7)c6)cc45)cc23)c1" What is its recorded EC50?
# output 160

====

Test system: primary human fibroblasts derived from IPF patients (LL29 cells) treated with TGF-β1
method.description: Inhibition of the fibrotic process (αSMA staining) in TGF-β1-treated fibroblasts
Assay type: cell-based
study.conditions: Fibroblast, 96 h, % αSMA-positive LL29 cells, TGF-β1 20 ng/mL, 4 days
Please assign no (0) whenever EC50 is at or above 600 nM, and yes (1) whenever it is below.

# example entries with known answers
{"columns": ["cpd.smiles", "label"],
 "data": [
  ["CN(C)c1cncc(-c2ccc3[nH]nc(-c4cc5c(-c6cccnc6)nccc5[nH]4)c3c2)c1", "no (0)"],
  ["Nc1cncc(-c2ccc3[nH]nc(-c4cc5c(-c6ccccc6F)nccc5[nH]4)c3c2)c1", "no (0)"],
  ["CS(=O)(=O)NCc1cc(F)cc(-c2nccc3[nH]c(-c4n[nH]c5ccc(-c6ccncc6)cc45)cc23)c1", "no (0)"],
  ["O=C(Nc1cncc(-c2ccc3[nH]nc(-c4cc5c(-c6cccnc6)nccc5[nH]4)c3c2)c1)c1ccccc1", "no (0)"],
  ["CS(=O)(=O)NCc1cc(F)cc(-c2nccc3[nH]c(-c4n[nH]c5ccc(-c6ccccn6)cc45)cc23)c1", "no (0)"]
]}

# input is_below(EC50, 600 nM) for "O=C(Nc1cncc(-c2ccc3[nH]nc(-c4cc5c(-c6ccc(F)cc6)nccc5[nH]4)c3c2)c1)C1CCC1" ?
# output yes (1)

# input is_below(EC50, 600 nM) for "Fc1ccccc1-c1nccc2[nH]c(-c3n[nH]c4ccc(-c5cncc(CN6CCC(F)(F)C6)c5)cc34)cc12" ?
# output yes (1)

# input is_below(EC50, 600 nM) for "CC(C)C(=O)Nc1cncc(-c2ccc3[nH]nc(-c4cc5c(-c6ccccc6F)nccc5[nH]4)c3c2)c1" ?
# output yes (1)

# input is_below(EC50, 600 nM) for "c1cc2[nH]c(-c3n[nH]c4ccc(-c5cncc(CN6CCCC6)c5)cc34)cc2cn1" ?
# output no (0)

# input is_below(EC50, 600 nM) for "CC(C)CC(=O)Nc1cncc(-c2ccc3[nH]nc(-c4cc5c(-c6ccc(F)cc6)nccc5[nH]4)c3c2)c1" ?
# output yes (1)

# input is_below(EC50, 600 nM) for "CN1CCN(c2nccc3[nH]c(-c4n[nH]c5ccc(-c6cncnc6)cc45)cc23)CC1" ?
# output no (0)

# input is_below(EC50, 600 nM) for "O=C(Nc1cncc(-c2ccc3[nH]nc(-c4cc5cnccc5[nH]4)c3c2)c1)C1CCC1" ?
# output yes (1)
